molecular target: GABA-A receptor; alpha-1/beta-2/gamma-2 (Homo sapiens) (UniProt P14867+P47870+P18507); assay: Agonist activity at human recombinant GABAA alpha-1-beta-2-gamma-2L receptor expressed in Xenopus oocytes assessed as change in GABA-induced chloride current amplitude at 1 uM by voltage clamp technique; format: functional, cell-based; details: Oocyte
assayMetric: Activity (%)

* CN(C(=O)Cc1c(-c2nccs2)nc2c(Cl)cc(Cl)cn12)c1ccccc1 | -1.2
* CCCN(CCC)C(=O)Cc1c(-c2ccc(OC(=O)CN)cc2)nc2c(Cl)cc(Cl)cn12 | 26.6
* CCCCN(C)C(=O)Cc1c(-c2ccc(O)cc2)nc2c(Cl)cc(Cl)cn12 | 7.9
* CCCN(CCC)C(=O)Cc1c(-c2ccc(Cl)cc2)nc2c(NC(=O)CCC(=O)O)cccn12 | 1.3
* CCCCN(C)C(=O)Cc1c(-c2ccc(Cl)c([N+](=O)[O-])c2)nc2c(Cl)cccn12 | 12.1
* CCC(C)N(C)C(=O)c1cc2ccccc2c(-c2ccccc2Cl)n1 (stereo unspecified) | 4.9

* * *

biological target: GABA-A receptor; alpha-1/beta-2/gamma-2 (Homo sapiens) (UniProt P14867+P47870+P18507); assay: Agonist activity at human recombinant GABAA alpha-1-beta-2-gamma-2L receptor expressed in Xenopus oocytes assessed as change in GABA-induced chloride current amplitude at 10 uM by voltage clamp technique; type: functional, cell-based; details: Oocyte
Label F if Activity falls below 10%; label T in every other case.

• CCCN(CCC)C(=O)Cc1c(-c2ccc(Cl)cc2)nc2c(NC(=O)CC(=O)O)cccn12 = T
• CCCN(CCC)C(=O)Cc1c(-c2ccc(O)cc2)nc2c(Cl)cc(Cl)cn12 = T
• COc1ccc(-c2nc3c(Cl)cc(Cl)cn3c2CC(=O)N(C)c2ccccc2)cc1 = F
• CN(C(=O)Cc1c(-c2nccs2)nc2c(Cl)cc(Cl)cn12)c1ccccc1 = T
• CCCN(CCC)C(=O)Cc1c(-c2ccc(OC)cc2)nc2c(Cl)cc(Cl)cn12 = T
• CCCN(CCC)C(=O)Cc1c(-c2nccs2)nc2c(Cl)cc(Cl)cn12 = T
• CCCCN(C)C(=O)Cc1c(-c2ccc(Cl)c([N+](=O)[O-])c2)nc2c(Cl)cc(Cl)cn12 = F
• CCCCN(C)C(=O)Cc1c(-c2ccc(Cl)c(N)c2)nc2c(Cl)cccn12 = T
• CN(C(=O)Cc1c(-c2ccc(O)cc2)nc2c(Cl)cc(Cl)cn12)c1ccccc1 = F
• CCCCN(C)C(=O)Cc1c(-c2ccc(OC)cc2)nc2c(Cl)cc(Cl)cn12 = F
• CCCN(CCC)C(=O)Cc1c(-c2ccc(OC(=O)CCC(=O)OC)cc2)nc2c(Cl)cc(Cl)cn12 = T
• CCCCN(C)C(=O)Cc1c(-c2ccc(Cl)c([N+](=O)[O-])c2)nc2c(Cl)cccn12 = F
• CCCCN(C)C(=O)Cc1c(-c2ccc(O)cc2)nc2c(Cl)cc(Cl)cn12 = F
